target: dopamine D2S receptor (human recombinant expressed in CHO cells) (Homo sapiens (Human)); test: Dopamine, D2S (human recombinant) binding assay; details: radioligand [3H]Spiperone
Sequence (P14416 other isoform, or with tags, fused parts or gaps): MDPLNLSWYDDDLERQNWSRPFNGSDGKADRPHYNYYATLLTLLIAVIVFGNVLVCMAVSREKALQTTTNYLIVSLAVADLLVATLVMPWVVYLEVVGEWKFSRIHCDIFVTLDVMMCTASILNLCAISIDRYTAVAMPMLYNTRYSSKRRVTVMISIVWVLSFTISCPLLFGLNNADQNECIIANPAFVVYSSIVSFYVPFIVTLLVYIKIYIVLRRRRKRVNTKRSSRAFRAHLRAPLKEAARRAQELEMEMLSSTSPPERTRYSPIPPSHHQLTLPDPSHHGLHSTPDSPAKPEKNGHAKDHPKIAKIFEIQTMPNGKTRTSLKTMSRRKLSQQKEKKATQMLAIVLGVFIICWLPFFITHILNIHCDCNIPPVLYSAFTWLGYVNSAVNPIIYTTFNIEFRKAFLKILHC
pIC50: −log10 of the molar value. Where a name gives a salt, the structure may show the parent alone.
attribute-measured: pIC50

[
  {
    "compound": "COc1ccccc1N1CCN(CCCCOc2ccc3c(c2)NC(=O)CO3)CC1 [Compound 15a, hydrochloride]",
    "numeric-value": 9.01
  }
]

###

target: serotonin 5-HT1A receptor (human recombinant expressed in HEK-293 cells) (Homo sapiens (Human), UniProt P08908); experiment: Serotonin, 5HT1A (human recombinant) binding assay; conditions: radioligand [3H]-8-OH-DPAT; human recombinant in HEK-293 cells
Sequence (P08908 whole entry): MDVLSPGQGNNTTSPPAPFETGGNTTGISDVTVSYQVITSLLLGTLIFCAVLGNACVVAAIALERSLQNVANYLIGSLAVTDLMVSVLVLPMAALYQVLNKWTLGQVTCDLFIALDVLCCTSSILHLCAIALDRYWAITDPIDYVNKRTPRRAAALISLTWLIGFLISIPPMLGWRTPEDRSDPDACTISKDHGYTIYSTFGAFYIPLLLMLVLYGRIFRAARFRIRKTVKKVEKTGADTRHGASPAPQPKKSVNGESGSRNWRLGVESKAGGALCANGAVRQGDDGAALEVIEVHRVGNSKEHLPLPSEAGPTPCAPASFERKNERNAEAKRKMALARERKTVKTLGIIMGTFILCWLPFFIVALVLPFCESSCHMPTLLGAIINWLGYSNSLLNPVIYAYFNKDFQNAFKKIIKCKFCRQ
pKi: −log10 of the molar value. Where a name gives a salt, the structure may show the parent alone.
Known pKi of a selection of compounds

[
  {
    "compound": "COc1ccccc1N1CCN(CCCCOc2ccc3c(c2)NC(=O)CO3)CC1 [Compound 15a, hydrochloride]",
    "pKi": 9.19
  },
  {
    "compound": "O=C1COc2ccc(OCCCCN3CCN(c4cccc(Cl)c4Cl)CC3)cc2N1 [Compound 15b, hydrochloride]",
    "pKi": 8.82
  }
]
